- measured.on: T1, hDcn5^P (PONY domain of human DCUN1D5) (Homo sapiens, UniProt Q9BTE7 47-237)
- T1 sequence: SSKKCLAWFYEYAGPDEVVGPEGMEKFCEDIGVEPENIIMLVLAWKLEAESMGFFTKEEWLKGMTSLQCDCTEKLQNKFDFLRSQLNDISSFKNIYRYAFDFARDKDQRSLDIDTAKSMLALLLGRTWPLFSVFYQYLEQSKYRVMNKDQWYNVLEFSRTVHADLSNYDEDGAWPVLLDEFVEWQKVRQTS
- test.method.notes: ITC, peptide titrated into Dcn PONY domain
pKd: −log10 of the molar value. Starred links: 1 amine or outer side, 2 acyl side, 3 side chain; linkers in the order of their positions; H or OH if unused. Positions of bridges follow the written chain, without caps; N, C: chain ends. Non-standard residues stand in square brackets, D forms with d. αMeNva(5-ylidene) = C[C@@](CCC=[*:3])(N[*:1])C(=O)[*:2]; S8 = C=CCCCCCC[C@](C)(N)C(=O)O; S5 = C=CCCC[C@](C)(N)C(=O)O; Nle = CCCC[C@H](N)C(=O)O

>  <binder>
Ac-MIKLF[αMeNva(5-ylidene)]LKQ[S8]KK-NH2 (staple 6-10) [hUbc12^Ac1-12 (Met) But:Oct 6, 10]

>  <pKd>
6.11

$$$$
>  <binder>
Ac-MLKLRQLQKKKQKENENSSSIQPN-NH2 (Synthetic peptide of the N-terminus of yeast Ubc12; also called Acetyl-yUbc12^1-24) [yUbc12^Ac1-24]

>  <pKd>
5.62

$$$$
>  <binder>
Ac-MIKLFSLKQQKKEEESAGGTKGSSKK-NH2 (Synthetic peptide of the N-terminus of human Ubc12; also called Acetyl-hUbc12^1-26) [hUbc12^Ac1-26]

>  <pKd>
5.07

$$$$
>  <binder>
Ac-[Nle]LKLR[S5]LQK[S5]KQ-NH2 (staple 6-10; SMILES CCCC[C@H](NC(C)=O)C(=O)N[C@@H](CC(C)C)C(=O)N[C@@H](CCCCN)C(=O)N[C@@H](CC(C)C)C(=O)N[C@@H](CCCNC(=N)N)C(=O)N[C@@]1(C)CCCC=CCCC[C@@](C)(C(=O)N[C@@H](CCCCN)C(=O)N[C@@H](CCC(N)=O)C(N)=O)NC(=O)[C@H](CCCCN)NC(=O)[C@H](CCC(N)=O)NC(=O)[C@H](CC(C)C)NC1=O) [yUbc12^Ac1-12 (NorLeu) 6, 10]

>  <pKd>
5.32

$$$$

FYI, the data here is from patent US20140179593A1.
